# assay_overview: Pharmacokinetics after oral (intragastric) administration to rats, plasma ARG by HPLC, 3P97 fit
# Assay type: in vivo, Wistar rats
# experimental_context: oral, second of three concentrations (middle dosage)

compound	AUC value, ng·h/mL
COc1ccc(CC2COC(=O)C2Cc2ccc(OC(=O)C(N)C(C)C)c(OC)c2)cc1OC (centres unmarked) [ARG-V]	391
COc1cc(C[C@H]2C(=O)OC[C@@H]2Cc2ccc(OC)c(OC)c2)ccc1O [ARG, Arctigenin]	316

----------
# assay_overview: Pharmacokinetics after oral (intragastric) administration to rats, plasma ARG by HPLC, 3P97 fit
# Assay type: in vivo, Wistar rats
# experimental_context: oral, third of three concentrations (high dosage)

compound	unit_annotation	AUC value
COc1ccc(CC2COC(=O)C2Cc2ccc(OC(=O)C(N)C(C)C)c(OC)c2)cc1OC (centres unmarked)	µg·h/mL	0.574
COc1cc(C[C@H]2C(=O)OC[C@@H]2Cc2ccc(OC)c(OC)c2)ccc1O	µg·h/mL	0.424
